- TARGET OF ASSAY: Phosphatidylinositol 5-phosphate 4-kinase type-2 beta (Homo sapiens)
- Sequence (P78356 whole entry): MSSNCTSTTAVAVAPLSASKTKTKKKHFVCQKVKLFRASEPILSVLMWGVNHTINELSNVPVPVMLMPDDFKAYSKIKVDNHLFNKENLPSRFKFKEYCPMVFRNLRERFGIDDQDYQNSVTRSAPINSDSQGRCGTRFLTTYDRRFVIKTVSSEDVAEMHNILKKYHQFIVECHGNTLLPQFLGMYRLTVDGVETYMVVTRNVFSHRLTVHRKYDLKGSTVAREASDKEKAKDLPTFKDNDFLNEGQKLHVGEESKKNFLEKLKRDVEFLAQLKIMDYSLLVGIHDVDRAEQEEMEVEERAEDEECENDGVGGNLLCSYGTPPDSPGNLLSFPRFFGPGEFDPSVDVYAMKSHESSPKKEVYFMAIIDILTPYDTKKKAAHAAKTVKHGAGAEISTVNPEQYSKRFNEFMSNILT
Provide the recorded Kd for the entries that follow.

Query: Report Kd for NC(=O)c1ccc(-c2nc(-c3ccc4c(c3)OCO4)c(-c3ccccn3)[nH]2)cc1 [SB-431542] please.
Response: > 10 µM

Query: Report Kd for COCC(=O)NC/C=C/c1ccc2ncnc(Nc3ccc(Oc4ccc(C)nc4)c(C)c3)c2c1 [CP-724714] please.
Response: > 10 µM

Query: Report Kd for Oc1ccc(-c2nc(-c3ccncc3)c(-c3ccc(F)cc3)[nH]2)cc1 [SB-202190] please.
Response: > 10 µM

---

- TARGET OF ASSAY: Mitogen-activated protein kinase 12 (Homo sapiens)
- Sequence (P53778 whole entry): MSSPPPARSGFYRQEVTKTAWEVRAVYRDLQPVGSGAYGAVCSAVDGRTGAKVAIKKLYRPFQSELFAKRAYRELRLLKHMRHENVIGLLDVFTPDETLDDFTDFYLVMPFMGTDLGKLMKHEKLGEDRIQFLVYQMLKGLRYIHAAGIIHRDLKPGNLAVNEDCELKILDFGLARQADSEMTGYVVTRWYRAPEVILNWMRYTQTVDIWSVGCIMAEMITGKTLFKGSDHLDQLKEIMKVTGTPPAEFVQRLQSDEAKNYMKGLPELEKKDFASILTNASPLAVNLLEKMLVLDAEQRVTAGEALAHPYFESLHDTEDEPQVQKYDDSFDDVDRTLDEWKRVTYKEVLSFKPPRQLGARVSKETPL
RECORDED METRIC: Kd

Query: Report Kd for CCOc1cc2ncc(C#N)c(Nc3ccc(F)c(Cl)c3)c2cc1NC(=O)/C=C/CN(C)C please.
Response: > 10 µM

Query: Report Kd for COCC(=O)NC/C=C/c1ccc2ncnc(Nc3ccc(Oc4ccc(C)nc4)c(C)c3)c2c1 please.
Response: > 10 µM

Query: Report Kd for NC(=O)c1ccc(-c2nc(-c3ccc4c(c3)OCO4)c(-c3ccccn3)[nH]2)cc1 please.
Response: > 10 µM

Query: Report Kd for Nc1nc(Nc2ccc(S(N)(=O)=O)cc2)nn1C(=O)c1c(F)cccc1F please.
Response: > 10 µM

---

- TARGET OF ASSAY: UniProt:Q99640
- Sequence (Q99640 whole entry): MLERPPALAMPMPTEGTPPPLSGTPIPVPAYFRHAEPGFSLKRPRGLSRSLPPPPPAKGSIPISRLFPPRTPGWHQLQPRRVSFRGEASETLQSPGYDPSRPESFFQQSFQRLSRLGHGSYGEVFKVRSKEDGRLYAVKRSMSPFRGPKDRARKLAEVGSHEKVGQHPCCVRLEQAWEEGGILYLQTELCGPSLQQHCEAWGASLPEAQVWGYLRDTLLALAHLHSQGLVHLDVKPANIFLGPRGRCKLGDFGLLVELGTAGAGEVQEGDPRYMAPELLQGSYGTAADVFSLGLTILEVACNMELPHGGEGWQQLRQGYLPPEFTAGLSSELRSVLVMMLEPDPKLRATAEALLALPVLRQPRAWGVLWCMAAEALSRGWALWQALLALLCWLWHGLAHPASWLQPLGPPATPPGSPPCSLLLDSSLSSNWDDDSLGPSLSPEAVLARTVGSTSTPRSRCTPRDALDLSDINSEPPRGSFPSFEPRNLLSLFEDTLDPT
pKd: −log10 of the molar value.
RECORDED METRIC: pKd

Query: Report pKd for COCC(=O)NC/C=C/c1ccc2ncnc(Nc3ccc(Oc4ccc(C)nc4)c(C)c3)c2c1 please.
Response: < 5.00

Query: Report pKd for NC(=O)c1ccc(-c2nc(-c3ccc4c(c3)OCO4)c(-c3ccccn3)[nH]2)cc1 please.
Response: < 5.00

Query: Report pKd for Oc1ccc(-c2nc(-c3ccncc3)c(-c3ccc(F)cc3)[nH]2)cc1 please.
Response: < 5.00

Query: Report pKd for CCOc1cc2ncc(C#N)c(Nc3ccc(F)c(Cl)c3)c2cc1NC(=O)/C=C/CN(C)C please.
Response: 5.54

Query: Report pKd for Nc1nc(Nc2ccc(S(N)(=O)=O)cc2)nn1C(=O)c1c(F)cccc1F please.
Response: < 5.00

---

RECORDED METRIC: Kd

Query: Hello, I am looking for reported Kd with Cyclin-dependent kinase 2 (Homo sapiens, UniProt P24941) for CCOc1cc2ncc(C#N)c(Nc3ccc(F)c(Cl)c3)c2cc1NC(=O)/C=C/CN(C)C . Could you help?
Response: > 10 µM

Query: Hello, I am looking for reported Kd with Cyclin-dependent kinase 2 (Homo sapiens, UniProt P24941) for COCC(=O)NC/C=C/c1ccc2ncnc(Nc3ccc(Oc4ccc(C)nc4)c(C)c3)c2c1 . Could you help?
Response: > 10 µM

Query: Hello, I am looking for reported Kd with Cyclin-dependent kinase 2 (Homo sapiens, UniProt P24941) for Oc1ccc(-c2nc(-c3ccncc3)c(-c3ccc(F)cc3)[nH]2)cc1 . Could you help?
Response: > 10 µM

---

- TARGET OF ASSAY: Serine/threonine-protein kinase TNNI3K (Homo sapiens, UniProt Q59H18)
- Sequence (Q59H18 whole entry): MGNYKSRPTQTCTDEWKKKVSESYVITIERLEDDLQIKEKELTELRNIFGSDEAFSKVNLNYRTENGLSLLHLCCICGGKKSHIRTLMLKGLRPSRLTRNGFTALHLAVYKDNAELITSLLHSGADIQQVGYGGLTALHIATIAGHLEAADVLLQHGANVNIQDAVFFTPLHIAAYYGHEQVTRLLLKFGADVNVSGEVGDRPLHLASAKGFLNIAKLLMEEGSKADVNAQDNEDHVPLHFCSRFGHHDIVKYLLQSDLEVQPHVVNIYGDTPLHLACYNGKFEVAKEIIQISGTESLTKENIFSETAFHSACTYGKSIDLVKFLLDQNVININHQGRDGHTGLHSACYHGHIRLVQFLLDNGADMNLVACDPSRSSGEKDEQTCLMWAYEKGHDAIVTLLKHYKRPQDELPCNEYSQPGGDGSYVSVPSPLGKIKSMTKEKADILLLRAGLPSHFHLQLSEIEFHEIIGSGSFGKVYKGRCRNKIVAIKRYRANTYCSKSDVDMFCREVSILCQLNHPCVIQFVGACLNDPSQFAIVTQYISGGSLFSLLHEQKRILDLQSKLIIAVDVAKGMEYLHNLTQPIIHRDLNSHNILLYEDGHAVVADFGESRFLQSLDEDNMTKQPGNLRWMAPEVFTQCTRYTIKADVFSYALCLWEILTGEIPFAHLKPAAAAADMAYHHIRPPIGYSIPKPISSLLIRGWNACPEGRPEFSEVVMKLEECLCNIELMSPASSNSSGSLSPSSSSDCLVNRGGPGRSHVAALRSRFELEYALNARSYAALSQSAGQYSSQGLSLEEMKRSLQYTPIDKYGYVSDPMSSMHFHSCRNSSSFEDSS
RECORDED METRIC: Kd (µM)
Numbers only here, please. The scale is µM.

Query: Hello, I am looking for reported Kd with Serine/threonine-protein kinase TNNI3K (Homo sapiens, UniProt Q59H18) for CCOc1cc2ncc(C#N)c(Nc3ccc(F)c(Cl)c3)c2cc1NC(=O)/C=C/CN(C)C . Could you help?
Response: 7.2

Query: Hello, I am looking for reported Kd with Serine/threonine-protein kinase TNNI3K (Homo sapiens, UniProt Q59H18) for Nc1nc(Nc2ccc(S(N)(=O)=O)cc2)nn1C(=O)c1c(F)cccc1F . Could you help?
Response: 1.4

---

pKd: −log10 of the molar value.
Provide the recorded pKd for the entries that follow.

Query: Hello, I am looking for reported pKd with Epidermal growth factor receptor (Homo sapiens, UniProt P00533, A750P/L747-E749DEL) for Nc1nc(Nc2ccc(S(N)(=O)=O)cc2)nn1C(=O)c1c(F)cccc1F [JNJ-7706621] . Could you help?
Response: < 5.00

Query: Hello, I am looking for reported pKd with Epidermal growth factor receptor (Homo sapiens, UniProt P00533, A750P/L747-E749DEL) for NC(=O)c1ccc(-c2nc(-c3ccc4c(c3)OCO4)c(-c3ccccn3)[nH]2)cc1 [SB-431542] . Could you help?
Response: < 5.00

---

Provide the recorded pKd for the entries that follow.
- TARGET OF ASSAY: Mitogen-activated protein kinase 9 (Homo sapiens)
- Sequence (P45984 whole entry): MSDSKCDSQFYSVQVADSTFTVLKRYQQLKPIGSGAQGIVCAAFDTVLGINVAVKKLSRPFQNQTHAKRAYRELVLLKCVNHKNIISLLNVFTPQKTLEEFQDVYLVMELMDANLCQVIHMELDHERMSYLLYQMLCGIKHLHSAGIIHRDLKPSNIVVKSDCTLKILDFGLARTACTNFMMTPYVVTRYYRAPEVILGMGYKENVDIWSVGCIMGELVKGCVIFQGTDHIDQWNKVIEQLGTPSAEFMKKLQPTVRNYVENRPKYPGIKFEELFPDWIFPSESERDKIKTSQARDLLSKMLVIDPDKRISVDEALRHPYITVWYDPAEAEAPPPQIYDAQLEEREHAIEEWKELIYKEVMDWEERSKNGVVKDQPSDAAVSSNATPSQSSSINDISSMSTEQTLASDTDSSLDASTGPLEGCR
pKd: −log10 of the molar value.

Query: Hello, I am looking for reported pKd with Mitogen-activated protein kinase 9 (Homo sapiens) for COCC(=O)NC/C=C/c1ccc2ncnc(Nc3ccc(Oc4ccc(C)nc4)c(C)c3)c2c1 . Could you help?
Response: < 5.00

Query: Hello, I am looking for reported pKd with Mitogen-activated protein kinase 9 (Homo sapiens) for NC(=O)c1ccc(-c2nc(-c3ccc4c(c3)OCO4)c(-c3ccccn3)[nH]2)cc1 . Could you help?
Response: < 5.00

Query: Hello, I am looking for reported pKd with Mitogen-activated protein kinase 9 (Homo sapiens) for CCOc1cc2ncc(C#N)c(Nc3ccc(F)c(Cl)c3)c2cc1NC(=O)/C=C/CN(C)C . Could you help?
Response: < 5.00

---

Provide the recorded pKd for the entries that follow.
pKd: −log10 of the molar value.

Query: Hello, I am looking for reported pKd with Protein-tyrosine kinase 6 (Homo sapiens) for Nc1nc(Nc2ccc(S(N)(=O)=O)cc2)nn1C(=O)c1c(F)cccc1F . Could you help?
Response: < 5.00

Query: Hello, I am looking for reported pKd with Protein-tyrosine kinase 6 (Homo sapiens) for CCOc1cc2ncc(C#N)c(Nc3ccc(F)c(Cl)c3)c2cc1NC(=O)/C=C/CN(C)C . Could you help?
Response: < 5.00

Query: Hello, I am looking for reported pKd with Protein-tyrosine kinase 6 (Homo sapiens) for COCC(=O)NC/C=C/c1ccc2ncnc(Nc3ccc(Oc4ccc(C)nc4)c(C)c3)c2c1 . Could you help?
Response: < 5.00

Query: Hello, I am looking for reported pKd with Protein-tyrosine kinase 6 (Homo sapiens) for NC(=O)c1ccc(-c2nc(-c3ccc4c(c3)OCO4)c(-c3ccccn3)[nH]2)cc1 . Could you help?
Response: < 5.00

Query: Hello, I am looking for reported pKd with Protein-tyrosine kinase 6 (Homo sapiens) for Oc1ccc(-c2nc(-c3ccncc3)c(-c3ccc(F)cc3)[nH]2)cc1 . Could you help?
Response: 5.17
